Source listed as ChEMBL document CHEMBL3860050.

# Assay system: ATP-dependent translocase ABCB1 (Homo sapiens, UniProt P08183)
# Sequence (P08183 whole entry): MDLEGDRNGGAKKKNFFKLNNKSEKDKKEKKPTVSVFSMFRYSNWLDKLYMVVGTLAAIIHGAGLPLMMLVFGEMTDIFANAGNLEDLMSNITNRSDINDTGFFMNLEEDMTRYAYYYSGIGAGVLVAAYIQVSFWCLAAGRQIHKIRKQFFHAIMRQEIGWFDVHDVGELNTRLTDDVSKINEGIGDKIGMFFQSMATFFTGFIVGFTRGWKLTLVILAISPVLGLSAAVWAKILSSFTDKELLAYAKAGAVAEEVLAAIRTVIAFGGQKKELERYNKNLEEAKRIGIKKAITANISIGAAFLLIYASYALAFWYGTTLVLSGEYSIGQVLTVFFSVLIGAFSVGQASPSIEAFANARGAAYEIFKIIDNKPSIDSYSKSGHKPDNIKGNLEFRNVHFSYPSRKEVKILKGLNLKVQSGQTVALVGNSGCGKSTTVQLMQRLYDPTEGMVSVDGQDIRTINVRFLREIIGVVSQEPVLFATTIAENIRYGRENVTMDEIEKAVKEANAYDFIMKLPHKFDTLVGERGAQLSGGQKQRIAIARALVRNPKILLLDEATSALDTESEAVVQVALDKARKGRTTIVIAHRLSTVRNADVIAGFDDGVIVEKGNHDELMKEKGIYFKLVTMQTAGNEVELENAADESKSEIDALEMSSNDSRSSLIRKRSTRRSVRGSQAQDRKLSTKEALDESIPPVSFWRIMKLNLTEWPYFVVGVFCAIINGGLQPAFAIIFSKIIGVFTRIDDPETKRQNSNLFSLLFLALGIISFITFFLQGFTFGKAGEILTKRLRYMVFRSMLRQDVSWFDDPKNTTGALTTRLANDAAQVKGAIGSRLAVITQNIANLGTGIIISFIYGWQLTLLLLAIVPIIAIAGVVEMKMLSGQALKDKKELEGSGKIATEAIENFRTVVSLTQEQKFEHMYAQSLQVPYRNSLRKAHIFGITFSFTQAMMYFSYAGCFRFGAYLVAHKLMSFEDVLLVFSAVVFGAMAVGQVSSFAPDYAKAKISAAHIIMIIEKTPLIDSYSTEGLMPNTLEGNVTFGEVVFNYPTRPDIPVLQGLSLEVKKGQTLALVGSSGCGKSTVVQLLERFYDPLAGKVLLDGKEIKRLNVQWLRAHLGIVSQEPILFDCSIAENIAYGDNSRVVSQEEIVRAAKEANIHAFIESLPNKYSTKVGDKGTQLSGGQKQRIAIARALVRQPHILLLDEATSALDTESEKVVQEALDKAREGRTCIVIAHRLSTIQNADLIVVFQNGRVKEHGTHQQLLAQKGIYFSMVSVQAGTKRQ
# Experiment summary: Inhibition of MDR1-mediated efflux-pump activity in mouse L5178Y cells expressing human MDR1 assessed as side scattered light at 20 uM preincubated for 10 mins followed by rhodamine-123 addition measured after 20 mins by flow cytometry (reference value: 194.6 to 286.4)
# Format: cell-based
Readout label: Activity
Could you respond with only the numeric value?

## Task Looking for the measured Activity of CO[C@H]1C=C2[C@@H](CC[C@H](OC(=O)/C=C/c3ccccc3)C2(C)C)[C@]2(C)CC[C@]3(C)[C@@H]([C@H](C)C[C@H](C=C(C)C)OC(=O)/C=C/c4ccccc4)CC[C@@]3(C)[C@H]12 [KARAVOATE P] , can you help?
## Result 177

## Task Quick check: Activity of CO[C@H]1C=C2[C@@H](CC[C@H](O)[C@]2(C)CO)[C@]2(C)CC[C@]3(C)[C@@H]([C@H](C)C[C@@H](O)C=C(C)C)CC[C@@]3(C)[C@H]12 [BALSAMINOL B] ?
## Result 260.7

## Task Would you mind telling me what Activity value was observed for CC(C)=C[C@H](O)C[C@@H](C)[C@H]1CC[C@@]2(C)[C@@H]3C=C[C@@]45OC[C@]3(CC[C@]12C)[C@@H]4CC[C@H](O)C5(C)C [KARAVILAGENIN E] ?
## Result 242

## Task Fill in the blank: the reported Activity of CO[C@H]1C=C2[C@@H](CC[C@H](OC(=O)c3ccc([N+](=O)[O-])cc3)C2(C)C)[C@]2(C)CC[C@]3(C)[C@@H]([C@H](C)C[C@H](C=C(C)C)OC(=O)c4ccc([N+](=O)[O-])cc4)CC[C@@]3(C)[C@H]12 [KARAVOATE J] is ____.
## Result 184.1

Others:
## Task Recorded Activity for CO[C@H]1C=C2[C@@H](CC[C@H](O)C2(C)C)[C@]2(C)CC[C@]3(C)[C@@H]([C@H](C)C[C@H](C=C(C)C)OC(=O)c4ccc(Cl)cc4)CC[C@@]3(C)[C@H]12 [KARAVOATE K] , please?
## Result 210.8

## Task Which Activity reading was recorded for the compound CO[C@H]1C=C2[C@@H](CC[C@H](O)C2(C)C)[C@]2(C)CC[C@]3(C)[C@@H]([C@H](C)C[C@H](C=C(C)C)O[C@@H]4O[C@H](CO)[C@@H](O)[C@H](O)[C@H]4O)CC[C@@]3(C)[C@H]12 ?
## Result 269.2

## Task So what's the measured Activity for this one? COc1ccc(C(=O)O[C@@H](C=C(C)C)C[C@@H](C)[C@H]2CC[C@@]3(C)[C@@H]4[C@@H](OC)C=C5[C@@H](CC[C@H](O)C5(C)C)[C@]4(C)CC[C@]23C)cc1 [KARAVOATE M]
## Result 181.8

## Task Requested read-out: Activity. Entry: CO[C@H]1C=C2[C@@H](CC[C@H](O)C2(C)C)[C@]2(C)CC[C@]3(C)[C@@H]([C@H](C)C[C@H](C=C(C)C)OC(=O)CCC(=O)O)CC[C@@]3(C)[C@H]12
## Result 185.6

## Task Return reported Activity; argument: CCCC(=O)O[C@H]1CC[C@@H]2C(=C[C@H](OC)[C@@H]3[C@@]2(C)CC[C@]2(C)[C@@H]([C@H](C)C[C@H](C=C(C)C)OC(=O)CCC)CC[C@@]32C)C1(C)C [KARAVOATE F]
## Result 218.7

* * *

# Assay system: ATP-dependent translocase ABCB1 (Homo sapiens, UniProt P08183)
# Experiment summary: Inhibition of MDR1-mediated efflux-pump activity in mouse L5178Y cells expressing human MDR1 assessed as fluorescence activity ratio at 2 uM preincubated for 10 mins followed by rhodamine-123 addition measured after 20 mins by flow cytometry
# Format: cell-based
The entries below are paired with their reported Ratio.
Reply with the value as a number alone.

## Task Consider the compound CO[C@H]1C=C2[C@@H](CC[C@H](OC(=O)c3ccccc3)C2(C)C)[C@]2(C)CC[C@]3(C)[C@@H]([C@H](C)C/C=C/C(C)(C)O)CC[C@@]3(C)[C@H]12 and give its measured Ratio.
## Result 1

## Task Which Ratio value belongs to CC(C)=C[C@H](O)C[C@@H](C)[C@H]1CC[C@@]2(C)[C@@H]3C(=O)C=C4[C@@H](CC[C@H](O)C4(C)C)[C@]3(C)CC[C@]12C [BALSAMINOL E] ?
## Result 2

## Task Data request, read-out Ratio, for COc1ccc(C(=O)O[C@@H](C=C(C)C)C[C@@H](C)[C@H]2CC[C@@]3(C)[C@@H]4[C@@H](OC)C=C5[C@@H](CC[C@H](O)C5(C)C)[C@]4(C)CC[C@]23C)cc1 [KARAVOATE M]
## Result 1.8

## Task I'd like to know its Ratio. The compound in question is CO[C@H]1C=C2[C@@H](CC[C@H](O)C2(C)C)[C@]2(C)CC[C@]3(C)[C@@H]([C@H](C)C[C@H](C=C(C)C)OC(=O)CCC(=O)O)CC[C@@]3(C)[C@H]12
## Result 1.1

## Task Which measured Ratio value corresponds to C=C(C)[C@@H](O)[C@H](O)C[C@@H](C)[C@H]1CC[C@@]2(C)[C@@H]3[C@@H](O)C=C4[C@@H](CC[C@H](O)[C@]4(C)CO)[C@]3(C)CC[C@]12C [BALSAMINAPENTAOL A] ?
## Result 0.7

Next:
## Task Fill in: Ratio of CO[C@H]1C=C2[C@@H](CC[C@H](O)C2(C)C)[C@]2(C)CC[C@]3(C)[C@@H]([C@H](C)C[C@H](C=C(C)C)OC(=O)c4ccc([N+](=O)[O-])cc4)CC[C@@]3(C)[C@H]12 [KARAVOATE I] is ___
## Result 2.1

* * *

# Assay system: ATP-dependent translocase ABCB1 (Homo sapiens, UniProt P08183)
# Experiment summary: Inhibition of MDR1-mediated efflux-pump activity in mouse L5178Y cells expressing human MDR1 assessed as fluorescence activity ratio at 20 uM preincubated for 10 mins followed by rhodamine-123 addition measured after 20 mins by flow cytometry
# Assay type: cell-based
Entries and their Ratio

## Task Fill blank: measured Ratio of the molecule CO[C@H]1C=C2[C@@H](CC[C@H](OC(=O)CCC(=O)O)C2(C)C)[C@]2(C)CC[C@]3(C)[C@@H]([C@H](C)C[C@H](C=C(C)C)OC(=O)CCC(=O)O)CC[C@@]3(C)[C@H]12 is ____.
## Result 5.9

Next:
## Task Form field: reported Ratio of CO[C@H]1C=C2[C@@H](CC[C@H](O)C2(C)C)[C@]2(C)CC[C@]3(C)[C@@H]([C@H](C)C[C@H](C=C(C)C)O[C@@H]4O[C@H](CO)[C@@H](O)[C@H](O)[C@H]4O)CC[C@@]3(C)[C@H]12
## Result 49.1

* * *

Each entry below carries its recorded Activity.
# Assay system: ATP-dependent translocase ABCB1 (Homo sapiens, UniProt P08183)
# Experiment summary: Inhibition of MDR1-mediated efflux-pump activity in mouse L5178Y cells expressing human MDR1 assessed as forward scattered light at 2 uM preincubated for 10 mins followed by rhodamine-123 addition measured after 20 mins by flow cytometry (reference value: 455.7 to 509.9)
# Type: cell-based
Number, no unit, nothing else.

Examples with answers:
## Task Requested read-out: Activity. Entry: CO[C@H]1C=C2[C@@H](CC[C@H](O)C2(C)C)[C@]2(C)CC[C@]3(C)[C@@H]([C@H](C)C[C@H](C=C(C)C)O[C@@H]4O[C@H](CO)[C@@H](O)[C@H](O)[C@H]4O)CC[C@@]3(C)[C@H]12
## Result 446.8

## Task Could you tell me which Activity is on file for CO[C@H]1C=C2[C@@H](CC[C@H](OC(=O)c3ccccc3)C2(C)C)[C@]2(C)CC[C@]3(C)[C@@H]([C@H](C)C[C@H](C=C(C)C)OC(=O)c4ccccc4)CC[C@@]3(C)[C@H]12 [KARAVOATE H] ?
## Result 504.9

## Task Data request, read-out Activity, for CC(C)=C[C@H](O)C[C@@H](C)[C@H]1CC[C@@]2(C)[C@@H]3C=C[C@@]45OC[C@]3(CC[C@]12C)[C@@H]4CC[C@H](O)C5(C)C
## Result 568.8

Further cases:
## Task Which Activity is reported for this compound? CO[C@H]1C=C2[C@@H](CC[C@H](O)C2(C)C)[C@]2(C)CC[C@]3(C)[C@@H]([C@H](C)C[C@H](C=C(C)C)OC(=O)/C=C/c4ccccc4)CC[C@@]3(C)[C@H]12 [KARAVOATE O]
## Result 496.9

## Task // Activity lookup, key: CC(C)=C[C@H](O)C[C@@H](C)[C@H]1CC[C@@]2(C)[C@@H]3[C@@H](O)C=C4[C@@H](CC[C@H](O)[C@]4(C)CO)[C@]3(C)CC[C@]12C
## Result 432.9
